B1: library; a variant is named by its letters at N, in order (parent)
chain: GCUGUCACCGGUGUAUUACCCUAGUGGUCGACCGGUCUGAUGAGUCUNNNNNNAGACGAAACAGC

- Variants of: B1
- Assay overview: normalized RNA/DNA level without ligand (relative to sTRSVctl = 100) (log10 (% of sTRSVctl)); ligand: hypoxanthine (xanthine aptamer); higher = less ribozyme self-cleavage, higher mRNA level
- Experimental parameters: HEK293T, reporter: mCherry (pCS4076), ligand present: no
Reported normalized RNA/DNA level without ligand (log10) values for a set of variants
Reply with just the number.

| Mutation list | Observed value |
| --- | --- |
| GGCUGG | 1.66 |
| AGUACA | 1.76 |

Input CUAGCC . Output normalized RNA/DNA level without ligand (log10): 1.86

Input AGUAGC . Output normalized RNA/DNA level without ligand (log10): 1.64
